Where these numbers come from: ChEMBL document CHEMBL3632591

protocolNotes: Intrinsic clearance in human liver microsomes
Assay type: ADME
experimentalParameters: read-out: CLH
Could you please mark 1 (yes) for values of microsomal CLint below 30 µL/min/mg and 0 (no) for values at or above it?

Below are worked cases with known answers.
1) COc1ccc2c(O[C@H]3C[C@H]4C(=O)N(C)CCCC/C=C/[C@@H]5C[C@@]5(C(=O)NS(=O)(=O)C5CC5)NC(=O)N4C3)cc(-c3csc(C(F)(F)F)n3)nc2c1C; 1 (yes)
2) COc1ccc2c(OC[C@@H]3C[C@H]4C(=O)N(C)CCCC/C=C/[C@@H]5C[C@@]5(C(=O)NS(=O)(=O)C5(C)CC5)NC(=O)N34)cc(-c3nc(C(C)C)cs3)nc2c1Cl; 0 (no)
3) COc1ccc2c(O[C@H]3C[C@H]4C(=O)N(C)CCCC/C=C/[C@@H]5C[C@@]5(C(=O)NS(=O)(=O)C5(C)CC5)NC(=O)N4C3)cc(-c3nc(C(C)C)cs3)nc2c1Cl; 1 (yes)
4) COc1ccc2c(O[C@H]3C[C@H]4C(=O)N(C)CCCC/C=C/[C@@H]5C[C@@]5(C(=O)NS(=O)(=O)C5(C)CC5)NC(=O)N4C3)cc(-c3nc(C(F)(F)F)cs3)nc2c1C; 1 (yes)
5) COc1ccc2c(O[C@H]3C[C@H]4C(=O)N(C)CCCC/C=C/[C@@H]5C[C@@]5(C(=O)NS(=O)(=O)C5(C)CC5)NC(=O)N4C3)cc(-c3nc(C(C)C)cs3)nc2c1C; 1 (yes)

Ask | Dear reviewer, please state whether "COc1ccc2c(OC[C@@H]3C[C@H]4C(=O)N(C)CCCC/C=C/[C@@H]5C[C@@]5(C(=O)NS(=O)(=O)C5(C)CC5)NC(=O)N34)cc(-c3nc(C(C)C)cs3)nc2c1C" has microsomal CLint strictly beneath 30 µL/min/mg.
Reply | 0 (no)

====

protocolNotes: AUC (0 to 24 hrs) in CD-1 mouse at 2 mg/kg, iv administered as single dose measured after 24 hrs
Assay type: ADME, organism-based
Parameters: time < 24 hr, dose 2 mg/kg, route intravenous
experimentalParameters: in vivo
observable: AUC(0-t) at 24 h (ng·h/mL)
One number for each entry, in ng·h/mL.

Ask | Need AUC(0-t) at 24 h, item "COc1ccc2c(O[C@H]3CCN4C(=O)N(C)CCCCC=C[C@@H]5C[C@@]5(C(=O)NS(=O)(=O)C5(C)CC5)NC(=O)[C@@H]4C3)cc(-c3nc(C(F)(F)F)cs3)nc2c1C"
Reply | 4060

====

protocolNotes: Cmax in Sprague-Dawley rat plasma at 10 mg/kg, po administered as single dose measured after 24 hrs
Format: ADME, organism-based
Set-up: dose 10 mg/kg, route oral
observable: Cmax (ng/mL)
One number for each entry, in ng/mL.

1) COc1ccc2c(O[C@H]3CCN4C(=O)N(C)CCCCC=C[C@@H]5C[C@@]5(C(=O)NS(=O)(=O)C5(C)CC5)NC(=O)[C@@H]4C3)cc(-c3nc(C(F)(F)F)cs3)nc2c1C; 934

Now take the following compound into account.
Ask | Need Cmax, item "COc1ccc2c(O[C@H]3C[C@H]4C(=O)N(C)CCCC/C=C/[C@@H]5C[C@@]5(C(=O)NS(=O)(=O)C5(C)CC5)NC(=O)N4C3)cc(-c3nc(C(F)(F)F)cs3)nc2c1C"
Reply | 406

====

I'd be grateful if you could share measured EC50 for these entries.
Tested on: Hepatitis C virus
protocolNotes: Antiviral activity against HCV genotype 1b infected in human HuH7 cells after 3 days by luciferase assay
Assay type: functional, organism-based, Hepacivirus hominis
experimentalParameters: Huh-7, 72 h
Numbers only, in nM.

1) COc1ccc2c(O[C@H]3C[C@H]4C(=O)N(C)CCCC/C=C/[C@@H]5C[C@@]5(C(=O)NS(=O)(=O)C5(C)CC5)NC(=O)N4C3)cc(-c3nc(C4CCC4)cs3)nc2c1Cl; 29
2) COc1ccc2c(O[C@H]3CCN4C(=O)N(C)CCCC/C=C/[C@@H]5C[C@@]5(C(=O)NS(=O)(=O)C5CC5)NC(=O)[C@@H]4C3)cc(-c3nc(C(F)(F)F)cs3)nc2c1C; 0.9
3) COc1ccc2c(O[C@H]3C[C@H]4C(=O)N(C)CCCC/C=C/[C@@H]5C[C@@]5(C(=O)NS(=O)(=O)C5(C)CC5)NC(=O)N4C3)cc(C#N)nc2c1C; 499

Now take the following compound into account.
Ask | Need EC50, item "C#Cc1csc(-c2cc(O[C@H]3CCN4C(=O)N(C)CCCC/C=C/[C@@H]5C[C@@]5(C(=O)NS(=O)(=O)C5(C)CC5)NC(=O)[C@@H]4C3)c3ccc(OC)c(C)c3n2)n1"
Reply | 0.2

====

protocolNotes: AUC (0 to 24 hrs) in CD-1 mouse at 2 mg/kg, po administered as single dose
Format: ADME, organism-based
Design: dose 2 mg/kg, time < 24 hr, route oral
experimentalParameters: in vivo
observable: AUC(0-t) at 24 h (ng·h/mL)
Numbers only, in ng·h/mL.

Ask | Need AUC(0-t) at 24 h, item "COc1ccc2c(O[C@H]3CCN4C(=O)N(C)CCCCC=C[C@@H]5C[C@@]5(C(=O)NS(=O)(=O)C5(C)CC5)NC(=O)[C@@H]4C3)cc(-c3nc(C(F)(F)F)cs3)nc2c1C"
Reply | 1410

====

protocolNotes: Cytotoxicity against monkey hepatocytes
Format: cell-based, Macaca mulatta, Hepatocyte
experimentalParameters: rhesus monkey
observable: CC50

Ask | Need CC50, item "COc1ccc2c(O[C@H]3CCN4C(=O)N(C)CCCCC=C[C@@H]5C[C@@]5(C(=O)NS(=O)(=O)C5(C)CC5)NC(=O)[C@@H]4C3)cc(-c3nc(C(F)(F)F)cs3)nc2c1C"
Reply | > 10 µM

====

protocolNotes: Tmax in CD-1 mouse at 2 mg/kg, po administered as single dose
Type: ADME, organism-based
experimentalParameters: in vivo
observable: Tmax (h)
One number for each entry, in h.

Ask | Need Tmax, item "COc1ccc2c(O[C@H]3CCN4C(=O)N(C)CCCCC=C[C@@H]5C[C@@]5(C(=O)NS(=O)(=O)C5(C)CC5)NC(=O)[C@@H]4C3)cc(-c3nc(C(F)(F)F)cs3)nc2c1C"
Reply | 2

====

I'd be grateful if you could share measured AUC(0-t) for these entries.
protocolNotes: AUCt in Sprague-Dawley rat at 2 mg/kg, iv administered as single dose
Format: ADME, organism-based
experimentalParameters: in vivo
One number for each entry, in ng·h/mL.

1. COc1ccc2c(O[C@H]3CCN4C(=O)N(C)CCCCC=C[C@@H]5C[C@@]5(C(=O)NS(=O)(=O)C5(C)CC5)NC(=O)[C@@H]4C3)cc(-c3nc(C(F)(F)F)cs3)nc2c1C; 1750

Now take the following molecule into account.
Ask | Need AUC(0-t), item "COc1ccc2c(O[C@H]3C[C@H]4C(=O)N(C)CCCC/C=C/[C@@H]5C[C@@]5(C(=O)NS(=O)(=O)C5(C)CC5)NC(=O)N4C3)cc(-c3nc(C(F)(F)F)cs3)nc2c1C"
Reply | 2540

====

protocolNotes: Half life in Cynomolgus monkey at 2 mg/kg, iv administered as single dose
Format: ADME, organism-based, Macaca fascicularis
experimentalParameters: in vivo
observable: half-life (h)
One number for each entry, in h.

Ask | Need half-life, item "COc1ccc2c(O[C@H]3CCN4C(=O)N(C)CCCCC=C[C@@H]5C[C@@]5(C(=O)NS(=O)(=O)C5(C)CC5)NC(=O)[C@@H]4C3)cc(-c3nc(C(F)(F)F)cs3)nc2c1C"
Reply | 10.3

====

System: Hepatitis C virus
protocolNotes: Antiviral activity against HCV genotype 1b infected in human HuH7 cells after 3 days by luciferase assay
Type: functional, organism-based, Hepacivirus hominis
experimentalParameters: Huh-7, 72 h
I'd be grateful if you could share measured pEC50 for these entries.
One number for each entry, as −log10 of the molar value.

Worked examples, 2 compounds total:
1. COc1ccc2c(O[C@H]3C[C@H]4C(=O)N(C)CCCC/C=C/[C@@H]5C[C@@]5(C(=O)NS(=O)(=O)C5(C)CC5)NC(=O)N4C3)cc(-c3nc(C(F)(F)F)cs3)nc2c1C; 7.89
2. COc1ccc2c(O[C@H]3C[C@H]4C(=O)N(C)CCCC/C=C/[C@@H]5C[C@@]5(C(=O)NS(=O)(=O)C5CC5)NC(=O)N4C3)cc(-c3nc(C)cs3)nc2c1Cl; 7.66

Now take the following compound into account.
Ask | Need pEC50, item "COc1ccc2c(O[C@H]3C[C@H]4C(=O)N(C)CCCC/C=C/[C@@H]5C[C@@]5(C(=O)NS(=O)(=O)C5(C)CC5)NC(=O)N4C3)cc(-c3nc(C(C)C)cs3)nc2c1F"
Reply | 6.27

====

Target chain: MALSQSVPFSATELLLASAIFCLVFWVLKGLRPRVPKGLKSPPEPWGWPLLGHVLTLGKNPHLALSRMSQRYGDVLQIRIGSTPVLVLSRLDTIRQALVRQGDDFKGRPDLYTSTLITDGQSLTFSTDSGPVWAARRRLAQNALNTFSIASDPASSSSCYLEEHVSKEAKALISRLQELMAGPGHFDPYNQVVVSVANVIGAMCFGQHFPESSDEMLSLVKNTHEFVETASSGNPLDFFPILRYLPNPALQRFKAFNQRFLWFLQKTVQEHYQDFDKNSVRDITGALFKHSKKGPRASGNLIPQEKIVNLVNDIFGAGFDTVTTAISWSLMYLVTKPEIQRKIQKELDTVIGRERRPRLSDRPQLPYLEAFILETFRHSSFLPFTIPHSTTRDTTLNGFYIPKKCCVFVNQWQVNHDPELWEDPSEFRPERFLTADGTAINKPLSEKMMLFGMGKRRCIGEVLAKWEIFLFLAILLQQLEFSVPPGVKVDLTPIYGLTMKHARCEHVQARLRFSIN
observable: IC50

Ask | Need IC50, item "COc1ccc2c(O[C@H]3CCN4C(=O)N(C)CCCCC=C[C@@H]5C[C@@]5(C(=O)NS(=O)(=O)C5(C)CC5)NC(=O)[C@@H]4C3)cc(-c3nc(C(F)(F)F)cs3)nc2c1C"
Reply | ≥ 10 µM
